Origin of the recorded values: PubChem BioAssay (NCI)

- Assay Text: NCI Yeast Anticancer Drug Screen. Data for the mec2-1 strain (AID 157)
- Assay Conditions: S. cerevisiae mec2-1 strain, at 50.0 µM, active compounds read high
- Procedure: Growth inhibition of yeast strains with defined genetic alterations is measured as a screen for potential anti-cancer activity. Selected strains with alterations in DNA damage repair or cell cycle control were exposed to compounds and growth inhibition was measured relative to vehicle treated controls. The strain used in this assay is mec2-1
About 79,000 compounds went through this panel and 15% of them were active in at least one assay; those are over-represented in the sample as a whole.
Readings of growth inhibition for the listed compounds
Response body: numeric value in %, unit text excluded.

Reference set (8 entries):
>>> result_number("N#Cc1ccccc1OCCCCOc1ccccc1C#N")
14
>>> result_number("O=C1CCC(=O)N1CCc1cccc2ccccc12")
-1.1
>>> result_number("OC(CCNC12CC3CC(CC(C3)C1)C2)c1ccccc1 (stereo unspecified)")
22.4
>>> result_number("COC(=O)OC(C#N)c1cccc([N+](=O)[O-])c1 (stereo unspecified)")
8.8
>>> result_number("CCCC(C)c1ccc(OCc2ccc(C)cc2)cc1 (stereo unspecified)")
-4.25
>>> result_number("COc1ccc(NC(=O)Nc2cc(C(F)(F)F)ccc2Cl)cc1")
16.6
>>> result_number("O=C(Nc1c(Cl)cccc1Cl)Nc1c(Cl)cccc1Cl")
-4.85
>>> result_number("CC1(C)/C(=N\\NC(N)=O)C2CCC1C2 (stereo unspecified)")
-25.6

Switching to the query record.
Input: Determine from records and report growth inhibition for Cc1ccc(C(=O)C2=CN=C3C(=O)N(c4ccccc4)N(C)C3(C)C2=N)cc1 (stereo unspecified)
Output: 36.7

* * *

- Assay Text: NCI Yeast Anticancer Drug Screen. Data for the cln2 rad14 strain (AID 165);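 also: 0% = growth equal to vehicle treated cultures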
- Assay Conditions: S. cerevisiae cln2 rad14 strain, at 50.0 µM
About 79,000 compounds went through this panel and 15% of them were active in at least one assay; those are over-represented in the sample as a whole. Active and inactive are the calls of the source. Rule as the data show it: active = growth inhibition above about 70%; inactive = the rest.
Just give me one of these, please: Yes = active, No = inactive

>>> class_name("COc1cc2cc3c4ccc(OC)c(OC)c4cc[n+]3c(C)c2cc1OC (tested in a mixture with another compound)")
"Yes"

Input: Field: outcome | Entry: Cc1cc([N+](=O)[O-])ccc1NC(=O)c1c(Cl)c(Cl)c(C(=O)Nc2ccc([N+](=O)[O-])cc2C)c(Cl)c1Cl
Output: No

Input: Field: outcome | Entry: CCOC(=O)C(=O)C(C(=O)c1ccccn1)c1nc2n(c1O)C(=N)N=N2 (stereo not given)
Output: No

Input: Field: outcome | Entry: CC(=O)CCCC(CC(C)O)[Si](C)(C)C (stereo not given)
Output: No

Input: Field: outcome | Entry: CN(/N=C/c1ccccn1)C1=NCCCN1
Output: No

* * *

Readings of growth inhibition for the listed compounds
- Assay Text: NCI Yeast Anticancer Drug Screen. Data for the sgs1 mgt1 strain (AID 161);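 also: 0% = growth of cultures given vehicle only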
- Assay Conditions: S. cerevisiae sgs1 mgt1 strain, at 50.0 µM, active compounds read high
The panel holds about 79,000 compounds, 15% with a hit somewhere; the sample as a whole holds those more often.
Response body: numeric value in %, unit text excluded.

>>> result_number("CC(C)c1ccc(OCC2CCCO2)cc1 (stereo not given)")
39
>>> result_number("O=C1C=CC(Nc2ccc(Cl)c(Cl)c2)C1Nc1ccc(Cl)c(Cl)c1 (stereo not given)")
42.8
>>> result_number("CC(C)(C)C1=CC(=C2C(=O)C(=O)c3ccccc3C2=O)C=C(C(C)(C)C)C1=O")
-12.7
>>> result_number("CN1c2ccc(C3N(C(=O)C(F)(F)F)C=CN3C(=O)C(F)(F)F)cc2Sc2cc(C3N(C(=O)C(F)(F)F)C=CN3C(=O)C(F)(F)F)ccc21")
-2

Input: Determine from records and report growth inhibition for COc1ccc(/C=N/NC(=O)/C(C#N)=C/c2ccc(OC)cc2)cc1
Output: 3.7
